Tested on: Isocitrate dehydrogenase [NADP] cytoplasmic (Homo sapiens), O75874 [R132C]
Sequence (O75874 whole entry R132C): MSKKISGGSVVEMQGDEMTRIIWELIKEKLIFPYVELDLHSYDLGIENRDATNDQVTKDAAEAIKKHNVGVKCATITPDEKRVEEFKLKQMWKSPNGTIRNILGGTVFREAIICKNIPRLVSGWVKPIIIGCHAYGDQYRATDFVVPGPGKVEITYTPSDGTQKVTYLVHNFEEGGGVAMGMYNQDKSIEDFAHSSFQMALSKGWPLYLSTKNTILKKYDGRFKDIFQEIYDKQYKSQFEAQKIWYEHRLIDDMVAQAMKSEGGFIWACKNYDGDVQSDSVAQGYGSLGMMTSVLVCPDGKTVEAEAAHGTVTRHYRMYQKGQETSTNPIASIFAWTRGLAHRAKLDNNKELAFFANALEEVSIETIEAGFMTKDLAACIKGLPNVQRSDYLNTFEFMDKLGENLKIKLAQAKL
testDescription: Inhibition of recombinant human IDH1 R132C mutant extracted from Escherichia coli BL21 (DE3) cells using alpha-ketoglutarate as substrate at 2 uM incubated for 60 mins in presence of NADPH by absorbance based assay relative to control
assayMetric: inhibition

Prompt: Recorded inhibition of `COc1cc(O)c(-c2cc(-c3ccc(O)cc3)nc(N3CCN(c4ncccn4)CC3)n2)cc1CC=C(C)C` , please.
Completion: 32.5%

Prompt: Another: `COc1cc(O)c(-c2cc(-c3ccc(O)cc3)nc(-c3ccccn3)n2)cc1CC=C(C)C`
Completion: 76.8%

Prompt: Another: `COc1cc(O)c(-c2cc(-c3ccc(O)cc3)[nH]n2)cc1CC=C(C)C`
Completion: 29.1%

Prompt: Another: `COc1cc(O)c(-c2cc(-c3ccc(O)cc3)nc(-c3ncccn3)n2)cc1CC=C(C)C`
Completion: > 100%
